The reported measurements were obtained from PubChem BioAssay.

# System: glycogen synthase kinase-3 (GSK3A per assay name; protocol says GSK3B)
# METHOD DESCRIPTION: GSK3 binders on small-molecule microarrays, primary screen, biochemical, small-molecule microarray, 635 nm fluorescence, GSK3A (AID 1103); further: the record names both GSK3A and GSK3B
# CONDITION LABEL: small-molecule microarray binding, fluorescence 635 nm; higher = more signal
So basically: composite z-score at 0.03 or higher? That is met. Lower than 0.03? That is not met.

Examples from the recorded data:
Would you say CCCCC(=C=CC[C@@H](O)c1cccc(OCCO)c1)CCO shows composite z-score at minimum 0.03?
not met

Would you say COC(=O)[C@@]1(Cc2ccc(F)cc2)[C@H]2c3cc(C(=O)N(C)C)n(CCn4cc([N+](=O)[O-])nc4C)c3C[C@H]2CN1C(=O)c1ccccc1 shows composite z-score at minimum 0.03?
met

Would you say C=CC[C@]1(C(=O)N(C)C)COC(c2ccc(OCCCO)cc2)=N1 shows composite z-score at minimum 0.03?
met

Continuing:
Would you say CC(=O)n1cc(C(O)C2C=CC3C(=O)N(c4ccccc4)C(=O)C3N2Nc2ccccc2F)c2ccccc21 (configuration not stated) shows composite z-score at minimum 0.03?
not met

Would you say COc1ccc(CC[C@H](O)c2cccc(OCC(=O)OC(C)(C)C)c2)cc1 shows composite z-score at minimum 0.03?
met

Would you say COCCOC(=O)N1C(=O)[C@@]2(c3cc(C#CC4(O)CCCCCC4)ccc31)[C@H](C(=O)NC[C@H](O)c1ccccc1)[C@H]1C(=O)O[C@H](c3ccccc3)[C@H](c3ccccc3)N1[C@@H]2c1ccc(O)cc1 shows composite z-score at minimum 0.03?
met

Would you say O=C1N(CCS(=O)(=O)c2ccccc2)c2ccccc2[C@@H]2OC(c3ccc(OCCCO)cc3)=N[C@]12CCS(=O)(=O)c1ccccc1 shows composite z-score at minimum 0.03?
met
